# System: HCI-027 (organoid from a triple-negative breast cancer xenograft)
# assayInfo: CTG-3D luminescence at 96 h relative to day-0 seeding control (ratio to day 0); higher = more growth / less cytotoxicity; PDxO 3D drug screen, 96 h, CTG-3D normalised to day-0 seeding control.
# condition: 0.00025 µM; days in culture: 201
measurementKind: CTG-3D luminescence at 96 h

| compound | reading |
| --- | --- |
| C/C=C1\NC(=O)[C@H]2CSSCC/C=C/[C@H](CC(=O)N[C@H](C(C)C)C(=O)N2)OC(=O)[C@H](C(C)C)NC1=O [romidepsin] | 2.72 |
| CN(Cc1cnc2nc(N)nc(N)c2n1)c1ccc(C(=O)N[C@@H](CCC(=O)O)C(=O)O)cc1 [methotrexate] | 1.66 |
| C[C@@H]1COCCN1c1cc(C2([S@](C)(=N)=O)CC2)nc(-c2cc[nH]c3nccc2-3)n1 [ceralasertib] | 1.98 |
| O=C(O)C1(C(=O)O)CCC1.[NH2-].[NH2-].[Pt+2] [carboplatin] | 1.98 |
| C=CCn1c(=O)c2cnc(Nc3ccc(N4CCN(C)CC4)cc3)nc2n1-c1cccc(C(C)(C)O)n1 [adavosertib] | 1.69 |
| C[C@H](NC(=O)CCC(F)(F)F)C(=O)N[C@@H]1C(=O)N(CCO)c2ncccc2-c2ccccc21 [crenigacestat] | 1.77 |
| CC(C)n1nc(-c2ccc3oc(N)nc3c2)c2c(N)ncnc21 [sapanisertib] | 1.83 |
| COc1cc2c(Oc3ccc4[nH]c(C)cc4c3F)ncnc2cc1OCCCN1CCCC1 [cediranib] | 1.9 |
| Nc1ccn([C@@H]2O[C@H](CO)[C@@H](O)C2(F)F)c(=O)n1 [gemcitabine] | 1.37 |

* * *

# Test system: HCI-010 (organoid from a breast cancer xenograft)
# assayInfo: CTG-3D luminescence at 96 h relative to day-0 seeding control (ratio to day 0); higher = more growth / less cytotoxicity; PDxO 3D drug screen (set 2), 96 h, CTG-3D normalised to day-0 seeding control.
# condition: 1 µM; days in culture: 79
Listed next: entries and their corresponding CTG-3D luminescence at 96 h.

| structure | target | CTG-3D luminescence at 96 h |
| --- | --- | --- |
| CC(C)n1nc(-c2ccc3oc(N)nc3c2)c2c(N)ncnc21 | HCI-010 | 0.388 |
| CC(=O)c1c(C)c2cnc(Nc3ccc(N4CCNCC4)cn3)nc2n(C2CCCC2)c1=O | HCI-010 | 1.71 |
| O=C(c1cc(Cc2n[nH]c(=O)c3ccccc23)ccc1F)N1CCN(C(=O)C2CC2)CC1 | HCI-010 | 1.98 |
| CS(=O)(=O)CCNCc1ccc(-c2ccc3ncnc(Nc4ccc(OCc5cccc(F)c5)c(Cl)c4)c3c2)o1 | HCI-010 | 2.02 |

* * *

# System: HCI-025 (organoid from a breast cancer xenograft)
# assayInfo: CTG-3D luminescence at 96 h relative to day-0 seeding control (ratio to day 0); higher = more growth / less cytotoxicity; PDxO 3D drug screen (set 2), 96 h, CTG-3D normalised to day-0 seeding control.
# condition: 12.5 pM; days in culture: 175

| molecule | CTG-3D luminescence at 96 h |
| --- | --- |
| CO[C@H]1C[C@@H]2CC[C@@H](C)[C@@](O)(O2)C(=O)C(=O)N2CCCC[C@H]2C(=O)O[C@H]([C@H](C)C[C@@H]2CC[C@@H](O)[C@H](OC)C2)CC(=O)[C@H](C)/C=C(\C)[C@@H](O)[C@@H](OC)C(=O)[C@H](C)C[C@H](C)/C=C/C=C/C=C/1C [rapamycin] | 1.08 |
| CO[C@H]1C[C@@H]2CC[C@@H](C)[C@@](O)(O2)C(=O)C(=O)N2CCCC[C@H]2C(=O)O[C@H]([C@H](C)C[C@@H]2CC[C@@H](OCCO)[C@H](OC)C2)CC(=O)[C@H](C)/C=C(\C)[C@@H](O)[C@@H](OC)C(=O)[C@H](C)C[C@H](C)/C=C/C=C/C=C/1C [everolimus] | 1.08 |
| CC(=O)O[C@@]12CO[C@@H]1C[C@H](O)[C@@]1(C)C(=O)[C@H](O)C3=C(C)[C@@H](OC(=O)[C@H](O)[C@@H](NC(=O)OC(C)(C)C)c4ccccc4)C[C@@](O)([C@@H](OC(=O)c4ccccc4)[C@H]21)C3(C)C [docetaxel] | 0.586 |
| CC(C)n1nc(-c2ccc3oc(N)nc3c2)c2c(N)ncnc21 [sapanisertib] | 1.69 |
| Nc1cc(C(F)(F)F)c(-c2cc(N3CCOCC3)nc(N3CCOCC3)n2)cn1 [buparlisib] | 1.38 |

* * *

# System: HCI-010
# assayInfo: CTG-3D luminescence at 96 h relative to day-0 seeding control (ratio to day 0); higher = more growth / less cytotoxicity; PDxO 3D drug screen, 96 h, CTG-3D normalised to day-0 seeding control.
# condition: 625 fM; days in culture: 65
Listed below: CTG-3D luminescence at 96 h values for each entry.

| compound | CTG-3D luminescence at 96 h |
| --- | --- |
| NC(=O)Nc1cc(-c2cccc(F)c2)sc1C(=O)N[C@H]1CCCNC1 | 1.65 |
| CC(C)(C(=O)NCC(F)(F)C(F)(F)F)C(=O)N[C@@H]1C(=O)Nc2ccccc2-c2ccccc21 | 1.79 |
| CN(Cc1cnc2nc(N)nc(N)c2n1)c1ccc(C(=O)N[C@@H](CCC(=O)O)C(=O)O)cc1 [methotrexate] | 1.8 |
| Cc1nc(-c2cn3c(n2)-c2ccc(-c4cnn(C(C)(C)C(N)=O)c4)cc2OCC3)n(C(C)C)n1 | 1.82 |
| CCN1CCN(Cc2ccc(Nc3ncc(F)c(-c4cc(F)c5nc(C)n(C(C)C)c5c4)n3)nc2)CC1 | 1.65 |
| Nc1ccn([C@@H]2O[C@H](CO)[C@@H](O)C2(F)F)c(=O)n1 | 1.68 |
| CCN(c1cc(C#CCN2CCOCC2)cc(C(=O)NCc2c(C)cc(C)[nH]c2=O)c1C)[C@H]1CC[C@H](N(C)CCOC)CC1 | 1.8 |
| CNC(=O)c1cccc(-c2ccc3c(N4CCOC[C@@H]4C)nc(N4CCOC[C@@H]4C)nc3n2)c1 | 1.68 |
| C[C@H](NC(=O)CCC(F)(F)F)C(=O)N[C@@H]1C(=O)N(CCO)c2ncccc2-c2ccccc21 | 1.67 |

* * *

# System: HCI-025
# assayInfo: CTG-3D luminescence at 96 h relative to day-0 seeding control (ratio to day 0); higher = more growth / less cytotoxicity; PDxO 3D drug screen, 96 h, CTG-3D normalised to day-0 seeding control.
# condition: 0.005 µM; days in culture: 218
Known CTG-3D luminescence at 96 h of a selection of compounds

| compound | target | CTG-3D luminescence at 96 h |
| --- | --- | --- |
| CNC(=O)c1cccc(-c2ccc3c(N4CCOC[C@@H]4C)nc(N4CCOC[C@@H]4C)nc3n2)c1 [vistusertib] | HCI-025 | 1.94 |
| COc1cc2c(Oc3ccc4[nH]c(C)cc4c3F)ncnc2cc1OCCCN1CCCC1 [cediranib] | HCI-025 | 2.1 |
| C=CC(=O)N1CCC[C@@H](n2nc(-c3ccc(Oc4ccccc4)cc3)c3c(N)ncnc32)C1 [ibrutinib] | HCI-025 | 1.93 |
| CC(C)(C(=O)NCC(F)(F)C(F)(F)F)C(=O)N[C@@H]1C(=O)Nc2ccccc2-c2ccccc21 | HCI-025 | 1.95 |
| Nc1ccn([C@@H]2O[C@H](CO)[C@@H](O)C2(F)F)c(=O)n1 [gemcitabine] | HCI-025 | 1.77 |
| NC(=O)c1cccc2cn(-c3ccc([C@@H]4CCCNC4)cc3)nc12 [niraparib] | HCI-025 | 1.97 |
| CN(Cc1cnc2nc(N)nc(N)c2n1)c1ccc(C(=O)N[C@@H](CCC(=O)O)C(=O)O)cc1 [methotrexate] | HCI-025 | 2 |

* * *

# Tested on: HCI-001 (organoid from a triple-negative breast cancer xenograft)
# assayInfo: CTG-3D luminescence at 96 h relative to day-0 seeding control (ratio to day 0); higher = more growth / less cytotoxicity; PDxO 3D drug screen, 96 h, CTG-3D normalised to day-0 seeding control.
# condition: 0.00025 µM; days in culture: 240

| structure | CTG-3D luminescence at 96 h |
| --- | --- |
| Cc1cc(Nc2ncc(Cl)c(Nc3ccccc3S(=O)(=O)C(C)C)n2)c(OC(C)C)cc1C1CCNCC1 | 1.14 |
| NC(=O)c1cccc2cn(-c3ccc([C@@H]4CCCNC4)cc3)nc12 | 0.913 |
| Nc1ccn([C@@H]2O[C@H](CO)[C@@H](O)C2(F)F)c(=O)n1 | 1.26 |
| COc1cc2c(Oc3ccc4[nH]c(C)cc4c3F)ncnc2cc1OCCCN1CCCC1 | 1.12 |

* * *

# Tested on: HCI-016 (organoid from a triple-negative breast cancer xenograft)
# assayInfo: CTG-3D luminescence at 96 h relative to day-0 seeding control (ratio to day 0); higher = more growth / less cytotoxicity; PDxO 3D drug screen, 96 h, CTG-3D normalised to day-0 seeding control.
# condition: 0.1 µM; days in culture: 199

| compound | CTG-3D luminescence at 96 h |
| --- | --- |
| Nc1ccn([C@@H]2O[C@H](CO)[C@@H](O)C2(F)F)c(=O)n1 [gemcitabine] | 0.174 |
| CCN(c1cc(C#CCN2CCOCC2)cc(C(=O)NCc2c(C)cc(C)[nH]c2=O)c1C)[C@H]1CC[C@H](N(C)CCOC)CC1 | 1.86 |
| NC(=O)Nc1cc(-c2cccc(F)c2)sc1C(=O)N[C@H]1CCCNC1 [AZD7762] | 0.129 |
| O=C(O)C1(C(=O)O)CCC1.[NH2-].[NH2-].[Pt+2] [carboplatin] | 1.29 |

The measured values listed here are drawn from the supplement of paper PMC8882468.
